# Target Under Test: Human MAO-A (Homo sapiens, UniProt P21397)
# Sequence (P21397 whole entry): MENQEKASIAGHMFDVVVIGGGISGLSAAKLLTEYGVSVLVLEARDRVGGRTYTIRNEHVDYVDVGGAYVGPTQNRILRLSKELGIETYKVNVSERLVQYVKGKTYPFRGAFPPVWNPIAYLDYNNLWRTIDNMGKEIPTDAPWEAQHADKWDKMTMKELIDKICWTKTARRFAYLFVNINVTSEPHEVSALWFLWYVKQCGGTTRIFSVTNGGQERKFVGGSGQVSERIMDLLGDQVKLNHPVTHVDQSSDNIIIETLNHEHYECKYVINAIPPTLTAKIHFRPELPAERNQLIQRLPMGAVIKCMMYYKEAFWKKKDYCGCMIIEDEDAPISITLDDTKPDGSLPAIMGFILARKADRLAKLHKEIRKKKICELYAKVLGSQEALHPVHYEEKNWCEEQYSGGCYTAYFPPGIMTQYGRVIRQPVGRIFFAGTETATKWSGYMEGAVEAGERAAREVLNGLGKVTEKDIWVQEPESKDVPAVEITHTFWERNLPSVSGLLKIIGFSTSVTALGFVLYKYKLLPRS
# Method Notes: Inhibition of human recombinant MAO-A
# Conditions Used: 2 hours incubation; substrate tyramine 200 μM
pIC50: −log10 of the molar value.
Experimental Readout: pIC50

Can you look up pIC50 on Human MAO-A (Homo sapiens, UniProt P21397) for NC/C(=C\F)CS(=O)(=O)c1ccccc1 ?
< 4.00

----------
Please go through the items and note down their IC50.
# Target Under Test: UniProtKB P33072
# Sequence (P33072 170-418): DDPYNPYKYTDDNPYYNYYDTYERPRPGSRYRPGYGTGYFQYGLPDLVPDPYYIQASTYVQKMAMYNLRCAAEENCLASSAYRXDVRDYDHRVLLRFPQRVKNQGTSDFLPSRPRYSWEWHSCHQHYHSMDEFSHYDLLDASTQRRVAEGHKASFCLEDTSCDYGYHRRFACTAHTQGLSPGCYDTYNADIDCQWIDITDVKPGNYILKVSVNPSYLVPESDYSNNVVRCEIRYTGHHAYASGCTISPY
# Method Notes: LOX inhibition, hydrogen peroxide Amplex Red oxidation assay
# Assay type: biochemical
# Conditions Used: 2 h incubation with enzyme at 37 °C
# Description: LOX and LOXL protein family members can be acquired as recombinant active proteins from commercial sources, or extracted from animal tissues like bovine aorta, tendons, pig skin; or prepared from cell cultures. […] The fluorescence (RFU) was read every 2.5 min for 30 min at 37 °C, excitation 544 nm and emission 590 (Optima; BMG labtech). […]

GET /values?readout=IC50&item= NC/C(=C\F)CS(=O)(=O)c1cc(Cl)ccc1Cl
< 2000 nM

GET /values?readout=IC50&item= NC/C(=C\F)CS(=O)(=O)c1cccc(-n2nccn2)c1
< 5000 nM

GET /values?readout=IC50&item= NC/C(=C\F)CS(=O)(=O)c1cccc(Br)c1
< 2000 nM

GET /values?readout=IC50&item= Cc1ccc(S(=O)(=O)C/C(=C/F)CN)cc1C
< 2000 nM

GET /values?readout=IC50&item= Cc1ccc(S(=O)(=O)C/C(=C/F)CN)cc1Cl
< 2000 nM

GET /values?readout=IC50&item= CS(=O)(=O)c1ccc(S(=O)(=O)C/C(=C/F)CN)cc1
< 2000 nM

GET /values?readout=IC50&item= NC/C(=C\F)CS(=O)(=O)c1ccc2ccccc2c1
< 2000 nM

GET /values?readout=IC50&item= [2H]c1c([2H])c([2H])c(S(=O)(=O)C/C(=C/F)CN)c([2H])c1[2H]
< 5000 nM

GET /values?readout=IC50&item= NC/C(=C\F)CS(=O)(=O)c1cccc(C(F)(F)F)c1
< 2000 nM

GET /values?readout=IC50&item= NC/C(=C\F)CS(=O)(=O)c1cccc(F)c1
< 2000 nM
